- Test system: voltage gated potassium channels (transient outward current, TOC) in dorsal root ganglion (DRG) cells
- Assay procedure: Procedure 1: modulation of voltage-activated K^+ currents in dorsal root ganglion (DRG) cells, block of TOC
- Format: cell-based
- Reported conditions: 10 μM
// % Block of TOC, PROCEDURE 1 DRG % lookup, one value per entry

# Molecule, % Block of TOC, PROCEDURE 1 DRG % / %
rows = [
    ("COc1ccc(C[C@H]2CC[C@@H]3NC[C@H](CO)C[C@H]3C2)cc1 (relative stereo)", 32),
    ("COc1ccc(C[C@H]2CC[C@H]3NCCC[C@H]3C2)cc1", 28),
    ("COc1ccc(C[C@@H]2CC[C@H]3NC[C@H](CO)C[C@@H]3C2)cc1", 29),
    ("COc1ccc(C[C@H]2CC[C@@H]3[C@@H](CCCN3[C@H](C)c3ccccc3)C2)cc1", 49),
]
